B1: CASP6 (parent)
chain: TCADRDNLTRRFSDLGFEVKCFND

- Variants of: B1
- assay-notes: protein stability index of a GFP-peptide fusion (GPS, HEK-293T) (PSI 1-6); higher = more stable;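 further: lentivirally expressed fusions sorted by FACS into six bins by GFP to DsRed ratio, PSI derived from sequencing read proportions per bin multiplied by bin number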
- test-parameters: c terminus: a fixed tail appended
Quick rule for you: protein stability index at 3 or higher means YES, lower means NO.

TCMDRDNLTRRFSDLGFEVKCFND [A3M] ... YES
TCADRDNLTRRFKDLGFEVKCFND [S13K] ... YES
TCADRDNETRRFSDLGFEVKCFND [L8E] ... YES
TCADRDNLTRRFSDLGFEVKCFNT [D24T] ... NO
TCADRDNLTRRTSDLGFEVKCFND [F12T] ... YES
TCADRDNLMRRFSDLGFEVKCFND [T9M] ... NO

# evaluate next
Prompt: Does protein stability index meet or surpass 3 for TCADRDNLTRRFSDLGWEVKCFND [F17W] ?
Response: NO
